Molecular target: GST-NbGlk1(82-244) (Nicotiana benthamiana)
Chain: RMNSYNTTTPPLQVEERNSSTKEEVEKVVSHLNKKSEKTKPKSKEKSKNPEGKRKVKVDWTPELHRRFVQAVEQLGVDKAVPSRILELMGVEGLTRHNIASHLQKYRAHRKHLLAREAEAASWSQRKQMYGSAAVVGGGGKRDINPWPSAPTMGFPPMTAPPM
Test: protein-binding microarray; NbGlk1 is a Golden2-like transcription factor of Nicotiana benthamiana; high values mean tight binding
Settings: protein: recombinant; tags: GST (pTH6838); dsDNA, one strand shown
The full ranking holds about 16,000 sequences; the median of “e-score” is about -0.044, and the highest 2% start at about 0.38. The list comes from a sample in which the highest values are over-represented; it also holds close analogues and randomly drawn sequences.
Entries annotated with measured binding signal
property: binding signal (E-score)

>  <macromolecule.sequence>
AAAGATTA

>  <assayed.target>
GST-NbGlk1(82-244) (Nicotiana benthamiana)

>  <units.of.measure>
E-score

>  <reported.value>
0.318

$$$$
>  <macromolecule.sequence>
ACTGAAAT

>  <assayed.target>
GST-NbGlk1(82-244) (Nicotiana benthamiana)

>  <units.of.measure>
E-score

>  <reported.value>
0.278

$$$$
>  <macromolecule.sequence>
AACGATTC

>  <assayed.target>
GST-NbGlk1(82-244) (Nicotiana benthamiana)

>  <units.of.measure>
E-score

>  <reported.value>
0.214

$$$$
>  <macromolecule.sequence>
AGATCCCG

>  <assayed.target>
GST-NbGlk1(82-244) (Nicotiana benthamiana)

>  <units.of.measure>
E-score

>  <reported.value>
0.32

$$$$
>  <macromolecule.sequence>
ATTGCAAT

>  <assayed.target>
GST-NbGlk1(82-244) (Nicotiana benthamiana)

>  <units.of.measure>
E-score

>  <reported.value>
0.305

$$$$
>  <macromolecule.sequence>
ATCTGCGC

>  <assayed.target>
GST-NbGlk1(82-244) (Nicotiana benthamiana)

>  <units.of.measure>
E-score

>  <reported.value>
0.317

$$$$
>  <macromolecule.sequence>
CAAGATTG

>  <assayed.target>
GST-NbGlk1(82-244) (Nicotiana benthamiana)

>  <units.of.measure>
E-score

>  <reported.value>
0.308

$$$$
>  <macromolecule.sequence>
CAAGATTA

>  <assayed.target>
GST-NbGlk1(82-244) (Nicotiana benthamiana)

>  <units.of.measure>
E-score

>  <reported.value>
0.314

$$$$
>  <macromolecule.sequence>
AAAGTAAT

>  <assayed.target>
GST-NbGlk1(82-244) (Nicotiana benthamiana)

>  <units.of.measure>
E-score

>  <reported.value>
0.215

$$$$
>  <macromolecule.sequence>
ATACAGAA

>  <assayed.target>
GST-NbGlk1(82-244) (Nicotiana benthamiana)

>  <units.of.measure>
E-score

>  <reported.value>
0.221

$$$$
>  <macromolecule.sequence>
ATCTCCAG

>  <assayed.target>
GST-NbGlk1(82-244) (Nicotiana benthamiana)

>  <units.of.measure>
E-score

>  <reported.value>
0.293

$$$$
>  <macromolecule.sequence>
AGATCTCG

>  <assayed.target>
GST-NbGlk1(82-244) (Nicotiana benthamiana)

>  <units.of.measure>
E-score

>  <reported.value>
0.431

$$$$
>  <macromolecule.sequence>
AATACGTG

>  <assayed.target>
GST-NbGlk1(82-244) (Nicotiana benthamiana)

>  <units.of.measure>
E-score

>  <reported.value>
0.216

$$$$
>  <macromolecule.sequence>
ATTTCCTA

>  <assayed.target>
GST-NbGlk1(82-244) (Nicotiana benthamiana)

>  <units.of.measure>
E-score

>  <reported.value>
0.358

$$$$
>  <macromolecule.sequence>
ATATTGAG

>  <assayed.target>
GST-NbGlk1(82-244) (Nicotiana benthamiana)

>  <units.of.measure>
E-score

>  <reported.value>
0.214

$$$$
>  <macromolecule.sequence>
ATAGCGAT

>  <assayed.target>
GST-NbGlk1(82-244) (Nicotiana benthamiana)

>  <units.of.measure>
E-score

>  <reported.value>
0.247

$$$$
>  <macromolecule.sequence>
ATCTCCTC

>  <assayed.target>
GST-NbGlk1(82-244) (Nicotiana benthamiana)

>  <units.of.measure>
E-score

>  <reported.value>
0.296

$$$$
>  <macromolecule.sequence>
ATTTCTCC

>  <assayed.target>
GST-NbGlk1(82-244) (Nicotiana benthamiana)

>  <units.of.measure>
E-score

>  <reported.value>
0.242

$$$$
>  <macromolecule.sequence>
ACGCGAAT

>  <assayed.target>
GST-NbGlk1(82-244) (Nicotiana benthamiana)

>  <units.of.measure>
E-score

>  <reported.value>
0.244

$$$$
>  <macromolecule.sequence>
AAAGATAC

>  <assayed.target>
GST-NbGlk1(82-244) (Nicotiana benthamiana)

>  <units.of.measure>
E-score

>  <reported.value>
0.21

$$$$
>  <macromolecule.sequence>
AAAGATTG

>  <assayed.target>
GST-NbGlk1(82-244) (Nicotiana benthamiana)

>  <units.of.measure>
E-score

>  <reported.value>
0.335

$$$$
>  <macromolecule.sequence>
ATATCCTC

>  <assayed.target>
GST-NbGlk1(82-244) (Nicotiana benthamiana)

>  <units.of.measure>
E-score

>  <reported.value>
0.402

$$$$
